- protocolDetails: Cytotoxicity assay, crystal violet staining
- Format: cell-based, canine
- conditionSet: dog, MDCK cells (confluent monolayers); MDCK cells, 72 h, maximum tested 100 µM; mean with standard deviation; read-out: 50% cytotoxic concentration (CC50), MDCK
reportedEndpoint: CC50 at 72 h (nM)
# number only, unit nM dropped from output

Q: Bench note: what CC50 at 72 h did CCCC(C)C=C(C)C(O)C(C)C=CCCC(O)C(C)C(O)C(C)C(O)C(C)C1OC(C(C)C(=O)O)CCC1C (centres unmarked) [zincophorin] show?
Ans: 630

----------
- protocolDetails: Cytotoxicity assay, crystal violet staining
- Type: cell-based, human
- conditionSet: human
- Protocol: The cytotoxicity of zincophorin, methyl zincophorin, daptomycin (Chemos GmbH, Regenstauf, Germany), and imipenem (Sigma-Aldrich GmbH, Taufkirchen, Germany) was evaluated as described recently, [20]. […]
reportedEndpoint: CC50 at 72 h

Q: Query (molecule): CCCCCCCCCC(=O)N[C@@H](Cc1c[nH]c2ccccc12)C(=O)N[C@H](CC(N)=O)C(=O)N[C@@H](CC(=O)O)C(=O)N[C@@H]1C(=O)NCC(=O)N[C@@H](CCCN)C(=O)N[C@@H](CC(=O)O)C(=O)N[C@H](C)C(=O)N[C@@H](CC(=O)O)C(=O)NCC(=O)N[C@H](CO)C(=O)N[C@@H]([C@H](C)CC(=O)O)C(=O)N[C@@H](CC(=O)c2ccccc2N)C(=O)O[C@@H]1C ; field requested: CC50 at 72 h
Ans: > 100 µM
